# target-entity: Fyn (UniProt P06241)
# Sequence (P06241 whole entry, looked up): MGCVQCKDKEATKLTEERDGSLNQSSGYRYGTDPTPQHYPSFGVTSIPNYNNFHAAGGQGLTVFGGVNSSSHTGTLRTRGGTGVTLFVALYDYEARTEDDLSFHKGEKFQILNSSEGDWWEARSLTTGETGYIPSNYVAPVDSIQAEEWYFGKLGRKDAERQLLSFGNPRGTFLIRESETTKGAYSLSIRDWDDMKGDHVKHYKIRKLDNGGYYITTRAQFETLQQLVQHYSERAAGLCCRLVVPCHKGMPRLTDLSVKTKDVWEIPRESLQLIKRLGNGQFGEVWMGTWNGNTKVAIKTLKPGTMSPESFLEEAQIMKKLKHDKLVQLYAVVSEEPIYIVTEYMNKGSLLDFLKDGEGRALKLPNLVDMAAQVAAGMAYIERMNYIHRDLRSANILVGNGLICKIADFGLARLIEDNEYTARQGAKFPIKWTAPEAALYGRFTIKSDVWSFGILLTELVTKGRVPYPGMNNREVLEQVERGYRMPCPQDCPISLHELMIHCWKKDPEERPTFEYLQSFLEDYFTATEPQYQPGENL
# experiment-description: phosphorylation enrichment, bacterial display (enrichment ratio); higher = better substrate or ligand; peptides without Tyr show the background;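 further: 11-residue human phosphosite peptides and single-mutation variants displayed on the E. coli surface, counted by deep sequencing, each peptide's frequency after selection divided by its frequency in the unselected input library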;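 further: frequency after pTyr selection over input frequency; kinase dosed for 20-30% of maximal phosphorylation in three min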
Where phosphorylation enrichment equals or exceeds 0.4, the correct label is condition met; where it does not, the label is condition not met.

query-sequence: SSQILYKLEQS [THADA_Y701_V699I]
target-entity: Fyn (UniProt P06241)
assigned-label: condition not met
--
query-sequence: EVEFQYPFRLH [SYP_Y73_E72Q]
target-entity: Fyn (UniProt P06241)
assigned-label: condition met
--
query-sequence: EDEGLYMVRVP [MYOM3_Y343]
target-entity: Fyn (UniProt P06241)
assigned-label: condition met
--
query-sequence: EVGHVYLFLQP [ITGA2B_Y360_R358H]
target-entity: Fyn (UniProt P06241)
assigned-label: condition met
--
query-sequence: PPPPAYDDMAQ [TNK2_Y635_V638M]
target-entity: Fyn (UniProt P06241)
assigned-label: condition met
--
query-sequence: SDGHEYIFVDR [PDGFRB_Y579_P584R_YF]
target-entity: Fyn (UniProt P06241)
assigned-label: condition met

---

# Tested on: Fer (mouse)
# experiment-description: phosphorylation enrichment, bacterial display (enrichment ratio); higher = better substrate or ligand; peptides without Tyr show the background
quantity-name: phosphorylation enrichment

query-sequence: CKLCQYFLDHL [ATRX_Y1849_Y1847C_YF]
target-entity: Fer (mouse)
observed-value: 0.442

query-sequence: RRGLLYDSDEE [MCM2_Y137]
target-entity: Fer (mouse)
observed-value: 1.08

query-sequence: TTPGPYRSIFF [MPG_Y71_YF]
target-entity: Fer (mouse)
observed-value: 0.368

query-sequence: RSDSTYRMSAT [NHS_Y1532_S1531T]
target-entity: Fer (mouse)
observed-value: 0.587

query-sequence: LEDEVCAQKMK [TPM2_Y261_Y261C]
target-entity: Fer (mouse)
observed-value: 1.01

query-sequence: VKPENDRRLDI [VHL_Y175_Y175D]
target-entity: Fer (mouse)
observed-value: 0.43

query-sequence: SSQILYKLEQS [THADA_Y701_V699I]
target-entity: Fer (mouse)
observed-value: 0.423

query-sequence: ELELLYLDRNS [NYX_Y284]
target-entity: Fer (mouse)
observed-value: 0.408

query-sequence: MSSHHCDYKKY [ZNF445_Y428_Y428C]
target-entity: Fer (mouse)
observed-value: 0.388

query-sequence: SLIDGYYRLTA [JAK2_Y372]
target-entity: Fer (mouse)
observed-value: 0.427

query-sequence: GREAEYSEKHG [EPHB4_Y574_D576E]
target-entity: Fer (mouse)
observed-value: 0.398

query-sequence: DVVKDYAFVHM [RBM14_Y114]
target-entity: Fer (mouse)
observed-value: 2.58

query-sequence: EWLRRYLKNGK [HLA-C_Y195_E197K]
target-entity: Fer (mouse)
observed-value: 0.471

query-sequence: CTSIHYNFMCN [TP53_Y234_T231S_YF]
target-entity: Fer (mouse)
observed-value: 0.519

query-sequence: DTQNSYWCATS [TSC1_Y304_G305W]
target-entity: Fer (mouse)
observed-value: 0.405

query-sequence: HVIKFYGACSQ [RET_Y791_L790F]
target-entity: Fer (mouse)
observed-value: 0.576

query-sequence: WSQAMYPDLGP [STARD8_Y330_R327Q]
target-entity: Fer (mouse)
observed-value: 0.475

query-sequence: FDSPFYRDSLP [TSC1_Y508]
target-entity: Fer (mouse)
observed-value: 0.497

query-sequence: MWGSDYVHLSR [MAP3K4_Y582_Q584H]
target-entity: Fer (mouse)
observed-value: 0.417

query-sequence: NCLREYVAGRF [CRB1_Y711]
target-entity: Fer (mouse)
observed-value: 0.417

query-sequence: RHFTGYRIELQ [INSR_Y818]
target-entity: Fer (mouse)
observed-value: 0.544

query-sequence: RRGMPYGGLGD [TGM1_Y312_R315L]
target-entity: Fer (mouse)
observed-value: 0.456

query-sequence: AHAGEYGAGAL [HBA1_Y25_E28G]
target-entity: Fer (mouse)
observed-value: 0.384

query-sequence: NHQYDYTFDWT [CSNK1A1_Y294]
target-entity: Fer (mouse)
observed-value: 0.569

query-sequence: QLATEYVFSDF [PANX1_Y10]
target-entity: Fer (mouse)
observed-value: 0.424

query-sequence: LSQQVYRVNLS [FAT4_Y480_F475L]
target-entity: Fer (mouse)
observed-value: 0.572

query-sequence: SMEMKYLEEKN [ZAP70_Y451_G448E]
target-entity: Fer (mouse)
observed-value: 0.572

query-sequence: RSRSPYSPVFR [CDK13_Y399_L403F]
target-entity: Fer (mouse)
observed-value: 0.403

query-sequence: SDGHEYIFVDR [PDGFRB_Y579_P584R_YF]
target-entity: Fer (mouse)
observed-value: 0.329

---

# target-entity: Hck (UniProt P08631)
# Sequence (P08631 whole entry, looked up): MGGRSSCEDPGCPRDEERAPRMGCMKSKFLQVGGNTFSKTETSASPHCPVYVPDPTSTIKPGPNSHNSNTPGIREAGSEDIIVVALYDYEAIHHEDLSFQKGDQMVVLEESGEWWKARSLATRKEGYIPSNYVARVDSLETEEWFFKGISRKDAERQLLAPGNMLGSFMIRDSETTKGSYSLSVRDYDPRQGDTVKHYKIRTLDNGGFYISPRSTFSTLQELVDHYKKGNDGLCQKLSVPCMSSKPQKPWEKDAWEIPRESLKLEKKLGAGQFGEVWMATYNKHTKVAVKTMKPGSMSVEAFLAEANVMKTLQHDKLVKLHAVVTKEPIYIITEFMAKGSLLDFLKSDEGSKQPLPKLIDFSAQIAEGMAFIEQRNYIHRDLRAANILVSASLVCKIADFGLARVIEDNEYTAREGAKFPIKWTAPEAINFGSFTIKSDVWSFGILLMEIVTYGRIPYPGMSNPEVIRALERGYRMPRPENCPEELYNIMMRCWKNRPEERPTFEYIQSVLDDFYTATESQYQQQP
# experiment-description: phosphorylation enrichment, bacterial display (enrichment ratio); higher = better substrate or ligand; peptides without Tyr show the background

query-sequence: GRKTLYSFFSP [UNG_Y8_Q4R]
phosphorylation enrichment: 2.26
//
query-sequence: RYLTRYIYNRE [HLA-DQB1_Y62_V59L]
phosphorylation enrichment: 0.621
//
query-sequence: AAPAAHDAADT [GAMT_Y27_Y27H]
phosphorylation enrichment: 0.749
//
query-sequence: RLAKRYLIWEC [SCN5A_Y694_Q692K]
phosphorylation enrichment: 0.505
//
query-sequence: EEHIPCTHMNG [INSR_Y1361_Y1361C]
phosphorylation enrichment: 0.435
//
query-sequence: LGSWTYTKTVS [ROS1_Y144]
phosphorylation enrichment: 1.05
//
query-sequence: LSAPWYLNRIS [HEXA_Y421]
phosphorylation enrichment: 0.46
//
query-sequence: TLLERYGMTEI [ACSF3_Y355]
phosphorylation enrichment: 0.392
//
query-sequence: CTNPQYLAAGS [RABL3_Y185_R184Q]
phosphorylation enrichment: 0.505
//
query-sequence: RNLLIYTEFGK [HGD_Y166_G161R]
phosphorylation enrichment: 5.2
//
query-sequence: FGCGMYSHLQG [LGR4_Y848_D844G_YF]
phosphorylation enrichment: 1.71
//
query-sequence: IRDENYGEGSS [ACO2_Y665_G661R]
phosphorylation enrichment: 0.925
//
query-sequence: RQGQAYRGQRV [TSHR_Y706_A703G]
phosphorylation enrichment: 0.47
//
query-sequence: KACKHYLTTRT [ZBTB5_Y118]
phosphorylation enrichment: 0.501

---

Catalogue of sequences with associated phosphorylation enrichment
# target-entity: FGFR3 (UniProt P22607)
# Sequence (P22607 whole entry, looked up): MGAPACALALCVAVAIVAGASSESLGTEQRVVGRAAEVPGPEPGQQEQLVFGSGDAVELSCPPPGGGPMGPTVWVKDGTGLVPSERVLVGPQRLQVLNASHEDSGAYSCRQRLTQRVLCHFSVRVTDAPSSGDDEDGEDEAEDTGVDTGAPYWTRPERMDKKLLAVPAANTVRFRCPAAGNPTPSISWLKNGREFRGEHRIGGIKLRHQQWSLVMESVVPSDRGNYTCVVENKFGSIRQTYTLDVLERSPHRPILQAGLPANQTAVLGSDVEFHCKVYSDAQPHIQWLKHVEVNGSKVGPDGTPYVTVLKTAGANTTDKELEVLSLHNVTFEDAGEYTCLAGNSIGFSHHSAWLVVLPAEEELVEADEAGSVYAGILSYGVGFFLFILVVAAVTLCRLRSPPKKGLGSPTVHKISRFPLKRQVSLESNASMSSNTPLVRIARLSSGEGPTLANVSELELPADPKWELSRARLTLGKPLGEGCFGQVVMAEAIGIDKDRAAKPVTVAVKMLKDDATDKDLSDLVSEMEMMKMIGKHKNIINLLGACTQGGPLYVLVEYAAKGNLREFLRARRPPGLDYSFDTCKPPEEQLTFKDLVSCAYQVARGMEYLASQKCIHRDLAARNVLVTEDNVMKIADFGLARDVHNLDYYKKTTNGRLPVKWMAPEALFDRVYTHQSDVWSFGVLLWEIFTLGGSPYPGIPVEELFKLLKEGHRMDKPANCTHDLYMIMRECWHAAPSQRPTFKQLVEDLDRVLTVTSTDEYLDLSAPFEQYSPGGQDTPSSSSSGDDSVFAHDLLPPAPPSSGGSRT
# experiment-description: phosphorylation enrichment, bacterial display (enrichment ratio); higher = better substrate or ligand; peptides without Tyr show the background
quantity-name: phosphorylation enrichment

query-sequence: RLLVIYPWTQR [HBG2_Y36_V35I]
quantity-name: phosphorylation enrichment
observed-value: 1.03
//
query-sequence: AEVDTYCRHNY [HLA-DRB1_Y107_A103E]
quantity-name: phosphorylation enrichment
observed-value: 0.559
//
query-sequence: QGIIIYRAAYF [SLC25A4_Y187]
quantity-name: phosphorylation enrichment
observed-value: 1.39
//
query-sequence: FTTIHYNFMCN [TP53_Y234_C229Y_YF]
quantity-name: phosphorylation enrichment
observed-value: 0.887
//
query-sequence: LDPMVYMNDTS [PTK2B_Y834_K838T]
quantity-name: phosphorylation enrichment
observed-value: 0.708
//
query-sequence: GCRSKYVRLWG [KCNQ1_Y184_G186R]
quantity-name: phosphorylation enrichment
observed-value: 0.486
//
query-sequence: SLIEHYEPSET [PLCD1_Y258_R257H]
quantity-name: phosphorylation enrichment
observed-value: 0.704

---

# target-entity: EPHB2 (UniProt P29323)
# Sequence (P29323 whole entry, looked up): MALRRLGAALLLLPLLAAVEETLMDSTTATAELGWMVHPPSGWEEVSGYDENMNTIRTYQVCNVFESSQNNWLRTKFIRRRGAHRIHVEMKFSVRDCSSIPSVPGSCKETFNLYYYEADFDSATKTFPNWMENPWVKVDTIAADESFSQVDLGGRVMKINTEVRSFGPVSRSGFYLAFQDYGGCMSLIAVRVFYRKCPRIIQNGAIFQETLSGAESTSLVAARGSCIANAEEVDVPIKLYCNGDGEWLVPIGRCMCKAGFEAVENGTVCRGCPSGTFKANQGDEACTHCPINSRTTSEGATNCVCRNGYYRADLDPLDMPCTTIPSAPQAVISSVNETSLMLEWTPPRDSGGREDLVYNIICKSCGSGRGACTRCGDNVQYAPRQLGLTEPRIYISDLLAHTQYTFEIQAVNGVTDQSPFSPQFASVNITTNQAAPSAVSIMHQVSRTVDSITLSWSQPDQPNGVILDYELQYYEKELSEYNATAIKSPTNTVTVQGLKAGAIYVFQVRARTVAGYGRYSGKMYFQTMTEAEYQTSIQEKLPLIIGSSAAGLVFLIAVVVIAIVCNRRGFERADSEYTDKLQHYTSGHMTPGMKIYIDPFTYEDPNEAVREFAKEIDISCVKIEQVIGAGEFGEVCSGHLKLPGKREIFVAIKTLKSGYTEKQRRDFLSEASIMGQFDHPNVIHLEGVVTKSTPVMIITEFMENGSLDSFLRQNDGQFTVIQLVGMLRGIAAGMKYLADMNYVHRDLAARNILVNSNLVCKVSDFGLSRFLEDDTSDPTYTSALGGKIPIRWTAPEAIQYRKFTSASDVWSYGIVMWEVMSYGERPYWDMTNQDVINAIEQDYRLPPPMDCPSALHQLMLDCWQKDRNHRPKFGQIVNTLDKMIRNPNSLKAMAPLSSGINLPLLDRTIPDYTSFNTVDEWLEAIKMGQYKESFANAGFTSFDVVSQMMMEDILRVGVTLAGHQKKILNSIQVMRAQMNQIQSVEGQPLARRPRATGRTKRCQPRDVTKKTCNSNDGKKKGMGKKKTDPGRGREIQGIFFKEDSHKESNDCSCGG
# experiment-description: phosphorylation enrichment, bacterial display (enrichment ratio); higher = better substrate or ligand; peptides without Tyr show the background
Each record gets a class by phosphorylation enrichment: low band = under 0.5, middle band = from 0.5 up to 0.7, high band = 0.7 and over

query-sequence: RAIGHYSATSK [FAM120A_Y328_Y327H]
assigned-label: high band

query-sequence: TLSGIYQYNIA [FOXL2_Y81_I84N]
assigned-label: high band

query-sequence: SGPRRYTIATL [TTR_Y125_A129T]
assigned-label: low band

query-sequence: NGSFLYVIISQ [LRP1B_Y1988_R1987L]
assigned-label: middle band

query-sequence: QPDLLYDHIQP [TRRAP_Y862_F860L]
assigned-label: high band

query-sequence: ASQEEYSAMRD [KRAS_Y64_G60S]
assigned-label: middle band

query-sequence: RWHEGYRQTPK [CD44_Y412]
assigned-label: middle band

query-sequence: AGIENYTSRFG [NKD2_Y256]
assigned-label: low band

query-sequence: KKRSSYGNSSD [SELENOK_Y52_R50S]
assigned-label: low band

query-sequence: AEPTGYSAELS [EZR_Y499]
assigned-label: middle band

query-sequence: GGMTEYKLVVV [KRAS_Y4]
assigned-label: middle band

query-sequence: IIGNGYYFRVF [MYBPC3_Y1135]
assigned-label: middle band

query-sequence: HVIKFYGACSQ [RET_Y791_L790F]
assigned-label: high band

query-sequence: LKSEMYQKLLK [RGS13_Y146]
assigned-label: high band

query-sequence: KAESWYQTKYE [KRT75_Y342_E337K]
assigned-label: middle band

query-sequence: GHNNVYISEHV [GRIN2A_Y1423_D1421N]
assigned-label: low band

query-sequence: DTFDPYLDVAL [USP36_Y268_YF]
assigned-label: middle band

query-sequence: DYTEAYNSKIK [CLK1_Y305_P307S]
assigned-label: low band

query-sequence: SMEMKYLEEKN [ZAP70_Y451_G448E]
assigned-label: middle band

query-sequence: PLRAYYLIARV [HLCS_Y635_D634Y]
assigned-label: high band

query-sequence: KGNMFYENSFA [EGFR_Y113_R108K_YF]
assigned-label: low band

query-sequence: LITTLYIDFLG [KCNQ1_Y267_G269D]
assigned-label: high band

query-sequence: HFEFKYVINAI [MAOA_Y268_C266F_YF]
assigned-label: high band

query-sequence: LFIDSYEKDVA [PGM1_Y521_YF]
assigned-label: high band

query-sequence: LKEIRYPPYTD [ALDH3B2_Y362_H361R]
assigned-label: middle band

query-sequence: HSSPVYVGRVV [TGM2_Y219_R214H]
assigned-label: high band

query-sequence: YISLIYTNYEA [GSTP1_Y109]
assigned-label: high band

query-sequence: ISIFHYAKGQP [MPZ_Y82]
assigned-label: low band

query-sequence: YGTAQYCCRMG [LRRK2_Y2023_I2020T]
assigned-label: high band

query-sequence: LTSKPYAFTAW [NDUFS1_Y236_R241W]
assigned-label: middle band

query-sequence: PFRQWYESHFA [RPS8_Y113_YF]
assigned-label: high band

query-sequence: AFPVSYSSSGA [RET_Y687]
assigned-label: low band

query-sequence: HGTKVYIDPFT [EPHB4_Y590]
assigned-label: middle band

query-sequence: ALAHEYHGGGG [HBB_Y146_K145E]
assigned-label: low band

query-sequence: RPFVFYFSFLL [PTEN_Y177_R173P_YF]
assigned-label: low band

query-sequence: CFTRQYTLPPG [HSPB1_Y142_K141Q]
assigned-label: middle band

query-sequence: MSSLFYANTLF [HOXB7_Y6_YF]
assigned-label: high band

query-sequence: LEDEVCAQKMK [TPM2_Y261_Y261C]
assigned-label: high band

query-sequence: SIKDKHVTALF [KCNH2_Y611_Y611H_YF]
assigned-label: low band

query-sequence: IRTDAYVWAMT [RPE65_Y89_R91W]
assigned-label: middle band

query-sequence: VTRANYFIRDE [GNAS_Y339_K338N]
assigned-label: low band

query-sequence: EALSLYTKLMN [STAM_Y371]
assigned-label: middle band

query-sequence: LEKRAYICAHP [ACAD9_Y611]
assigned-label: low band

query-sequence: ESPGLYGFLNV [BCR_Y910]
assigned-label: middle band

query-sequence: AGTILSHAHLD [ASS1_Y291_Y291S]
assigned-label: low band

query-sequence: SKKSTYRALLD [GANC_Y43_Q44R]
assigned-label: low band

query-sequence: GEEIKYMLWLS [OTC_Y55]
assigned-label: middle band

query-sequence: LQTFRYHGLSM [PDHA1_Y289_H292L_YF]
assigned-label: high band

query-sequence: GAVGNYSGGLA [MGMT_Y158]
assigned-label: low band

query-sequence: AGQEGYDRLRP [RAC1_Y64_D63G]
assigned-label: middle band

query-sequence: EDDPEYMRLRN [ADD2_Y31]
assigned-label: middle band

query-sequence: RQNNSYTCFTA [SLC20A2_Y386_R382Q_YF]
assigned-label: middle band
